target.or.test.system: UniProtKB Q9H8M2
Sequence (Q9H8M2 1-597): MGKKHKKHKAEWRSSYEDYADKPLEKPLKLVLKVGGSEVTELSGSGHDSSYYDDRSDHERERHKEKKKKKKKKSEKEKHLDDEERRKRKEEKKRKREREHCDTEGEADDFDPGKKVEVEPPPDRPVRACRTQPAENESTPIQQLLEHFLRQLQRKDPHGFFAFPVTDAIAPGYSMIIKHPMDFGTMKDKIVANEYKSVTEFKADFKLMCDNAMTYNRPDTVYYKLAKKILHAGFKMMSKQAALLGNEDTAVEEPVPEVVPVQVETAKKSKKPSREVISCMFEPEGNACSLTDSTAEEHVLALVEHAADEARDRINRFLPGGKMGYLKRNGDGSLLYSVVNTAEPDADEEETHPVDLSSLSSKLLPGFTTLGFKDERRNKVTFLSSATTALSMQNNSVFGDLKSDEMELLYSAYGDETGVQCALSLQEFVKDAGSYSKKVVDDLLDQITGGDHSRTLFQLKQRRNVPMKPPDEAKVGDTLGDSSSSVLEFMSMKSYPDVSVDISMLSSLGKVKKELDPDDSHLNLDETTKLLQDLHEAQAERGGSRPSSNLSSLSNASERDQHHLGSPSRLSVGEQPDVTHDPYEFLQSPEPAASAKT
method.notes: BRD9 degradation, HiBiT-BRD9 KI HEK293 (LgBiT) cells, NanoGlo Lytic Endpoint assay (Assay Protocol 1)
Type: cell-based
run.parameters: Assay protocol 1; BRD9 degradation; read-out: DC50
readout.name: DC50

Consider the following illustrative entries.
compound="COc1cc(-c2cn(C)c(=O)c(C)c2C)cc(OC)c1CN1CC2CC(C1)N2Cc1cccc2c1CCN(C(=O)/C(C#N)=C/c1ccnc(C)n1)C2C (mixture of isomers)" target_or_test_system="UniProtKB Q9H8M2" measured_result="1.25 to 10 nM"
compound="COc1cccnc1/C=C(\\C#N)C(=O)N1CCc2c(CN3CCN(Cc4c(OC)cc(-c5cn(C)c(=O)c(C)c5C)cc4OC)CC3)cccc2C1C (mixture of isomers)" target_or_test_system="UniProtKB Q9H8M2" measured_result="1.25 to 10 nM"
compound="COc1ccnc(/C=C(\\C#N)C(=O)N2CCc3c(CN4CCN(Cc5c(OC)cc(-c6cn(C)c(=O)c(C)c6C)cc5OC)CC4)cccc3C2C)c1 (mixture of isomers)" target_or_test_system="UniProtKB Q9H8M2" measured_result="< 1.25 nM"
compound="COc1cc(-c2cn(C)c(=O)c(C)c2C)cc(OC)c1CN1CCN(C(=O)c2ccc(C3CCCN3C(=O)/C(C#N)=C/C(C)(C)C)cc2)CC1 (mixture of isomers)" target_or_test_system="UniProtKB Q9H8M2" measured_result="10 to 25 nM"
compound="COc1cc(-c2cn(C)c(=O)c(C)c2C)cc(OC)c1CN1CCN(Cc2cccc3c2CCN(C(=O)/C(C#N)=C/C(C)(C)N2CCN(C4COC4)CC2)C3C)C2(CC2)C1 (mixture of isomers)" target_or_test_system="UniProtKB Q9H8M2" measured_result="1.25 to 10 nM"

Ask: So what's the measured DC50 for this one? COc1cc(-c2cn(C)c(=O)c(C)c2C)cc(OC)c1CN1CCN(C(=O)c2cccc(C3CCCN3C(=O)/C(C#N)=C/C(C)(C)C)c2)CC1 (mixture of isomers)
Reply: 25 to 1000 nM

Ask: So what's the measured DC50 for this one? COc1cc(-c2cn(C)c(=O)c(C)c2C)cc(OC)c1CN1CCN(Cc2cccc3c2CCN(C(=O)/C(C#N)=C/C(C)(C)C)C3(C)C)C2(CC2)C1
Reply: 25 to 1000 nM

Ask: So what's the measured DC50 for this one? COc1cc(-c2cn(C)c(=O)c(C)c2C)cc(OC)c1CN(C)C1CCN(C(=O)/C(C#N)=C/C23CC(C2)C3)CC1 (mixture of isomers)
Reply: 1.25 to 10 nM

Ask: So what's the measured DC50 for this one? COc1cc(-c2cn(C)c(=O)c(C)c2C)cc(OC)c1CN1CCN(Cc2cccc3c2CCN(C(=O)/C(C#N)=C/C2CCOC2)C3C)CC1 (mixture of isomers)
Reply: 1.25 to 10 nM

Ask: So what's the measured DC50 for this one? COc1cc(-c2cn(C)c(=O)c(C)c2C)cc(OC)c1CN(C)Cc1ccc2c(c1)CCN(C(=O)/C(C#N)=C/c1nc3ccccc3s1)C2C (mixture of isomers)
Reply: 1.25 to 10 nM

Ask: So what's the measured DC50 for this one? COc1cc(-c2cn(C)c(=O)c(C)c2C)cc(OC)c1CN1CCN(Cc2cccc3c2CCN(C(=O)/C(C#N)=C/c2ccc(C)cn2)C3C)CC1 (mixture of isomers)
Reply: 1.25 to 10 nM

Ask: So what's the measured DC50 for this one? COc1cc(-c2cn(C)c(=O)c(C)c2C)cc(OC)c1C(=O)N1CCN(Cc2cccc(C3CCCN3C(=O)/C(C#N)=C/C(C)(C)C)c2)CC1 (mixture of isomers)
Reply: 10 to 25 nM

Ask: So what's the measured DC50 for this one? COc1cc(-c2cn(C)c(=O)c(C)c2C)cc(OC)c1CN1CCN(Cc2cccc(C3CCCN3C(=O)/C(C#N)=C/c3nc(C(F)(F)F)cs3)c2)CC1 (stereo not drawn)
Reply: < 1.25 nM
